Test: recombinant protein expression level
Conditions: glycan lost; control: LRG1 WT
Experimental readout: expression_or_secretion

{"Protein": "leucine-rich α-2-glycoprotein 1 (LRG1): N325D (protein) parent chain: MSSWSRQRPKSPGGIQPHVSRTLFLLLLLAASAWGVTLSPKDCQVFRSDHGSSISCQPPAEIPGYLPADTVHLAVEFFNLTHLPANLLQGASKLQELHLSSNGLESLSPEFLRPVPQLRVLDLTRNALTGLPPGLFQASATLDTLVLKENQLEVLEVSWLHGLKALGHLDLSGNRLRKLPPGLLANFTLLRTLDLGENQLETLPPDLLRGPLQLERLHLEGNKLQVLGKDLLLPQPDLRYLFLNGNKLARVAAGAFQGLRQLDMLDLSNNSLASVPEGLWASLGQPNWDMRDGFDISGNPWICDQNLSDLYRWLQAQKDKMFSQNDTRCAGPEAVKGQTLLAVAKSQ", "Experimental readout": "expression_or_secretion", "Value observed": "no change"}
{"Protein": "leucine-rich α-2-glycoprotein 1 (LRG1): N269D (protein) parent chain: MSSWSRQRPKSPGGIQPHVSRTLFLLLLLAASAWGVTLSPKDCQVFRSDHGSSISCQPPAEIPGYLPADTVHLAVEFFNLTHLPANLLQGASKLQELHLSSNGLESLSPEFLRPVPQLRVLDLTRNALTGLPPGLFQASATLDTLVLKENQLEVLEVSWLHGLKALGHLDLSGNRLRKLPPGLLANFTLLRTLDLGENQLETLPPDLLRGPLQLERLHLEGNKLQVLGKDLLLPQPDLRYLFLNGNKLARVAAGAFQGLRQLDMLDLSNNSLASVPEGLWASLGQPNWDMRDGFDISGNPWICDQNLSDLYRWLQAQKDKMFSQNDTRCAGPEAVKGQTLLAVAKSQ", "Experimental readout": "expression_or_secretion", "Value observed": "no change"}
{"Protein": "leucine-rich α-2-glycoprotein 1 (LRG1): N186D (protein) parent chain: MSSWSRQRPKSPGGIQPHVSRTLFLLLLLAASAWGVTLSPKDCQVFRSDHGSSISCQPPAEIPGYLPADTVHLAVEFFNLTHLPANLLQGASKLQELHLSSNGLESLSPEFLRPVPQLRVLDLTRNALTGLPPGLFQASATLDTLVLKENQLEVLEVSWLHGLKALGHLDLSGNRLRKLPPGLLANFTLLRTLDLGENQLETLPPDLLRGPLQLERLHLEGNKLQVLGKDLLLPQPDLRYLFLNGNKLARVAAGAFQGLRQLDMLDLSNNSLASVPEGLWASLGQPNWDMRDGFDISGNPWICDQNLSDLYRWLQAQKDKMFSQNDTRCAGPEAVKGQTLLAVAKSQ", "Experimental readout": "expression_or_secretion", "Value observed": "no change"}
